B1: FOXJ1 (parent)
chain: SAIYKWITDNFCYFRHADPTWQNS

Variants of: B1
MEASUREMENT DESCRIPTION: protein stability index of a GFP-peptide fusion (GPS, HEK-293T) (PSI 1-6); higher = more stable;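 note: lentivirally expressed fusions sorted by FACS into six bins by GFP to DsRed ratio, PSI derived from sequencing read proportions per bin multiplied by bin number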
CONDITION SET: c terminus: a fixed tail appended
# protein stability index annotations
API note: the answer field is a bare number with no unit suffix.

Some solved entries appear below for comparison.
W6Q: 2.07
D18R: 2.77
N10L: 3.56

Problem: What does the record list as protein stability index for W6D ?
Result: 2.12

Problem: And then I3P , what is it?
Result: 2.06

Problem: And then F14W , what is it?
Result: 2.73

Problem: And then Q22M , what is it?
Result: 3.06

Problem: And then F11T , what is it?
Result: 2.83

Problem: And then D9F , what is it?
Result: 3.55

Problem: And then C12T , what is it?
Result: 3.14

Problem: And then K5I , what is it?
Result: 3.27

Problem: And then F14C , what is it?
Result: 3.92

Problem: And then D18N , what is it?
Result: 3.12

Problem: And then D18Y , what is it?
Result: 2.95

Problem: And then I3L , what is it?
Result: 2.36

Problem: And then F11D , what is it?
Result: 1.49

Problem: And then W21T , what is it?
Result: 4.47

Problem: And then N10Y , what is it?
Result: 3.33

Problem: And then D9I , what is it?
Result: 4

Problem: And then K5F , what is it?
Result: 2.91

Problem: And then A2K , what is it?
Result: 2.72

Problem: And then I3W , what is it?
Result: 2.41
